// data source = PubChem BioAssay

composite z-score overview
test system: PRMT1 (protein arginine N-methyltransferase 1); assay: small molecules binding arginine methyltransferase PRMT1 – biochemical, small-molecule microarray, 635 nm fluorescence, primary screen (AID 1088); conditions: higher = more signal;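 note: binding of Prmt1 protein to compounds spotted on small-molecule microarray slides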
Reply with the value as a number alone.

SMILES_RECORD: COc1ccc(CCNC(=O)[C@@H]2c3ccccc3C(=O)N(Cc3ccccc3OC)[C@H]2c2ccc(CO)cc2)cc1
composite z-score: 1.53

Below: the item to evaluate.
Lookup: Consider the compound shown here: CCCCCCc1nc(Cc2cc(OC)c(OC)c(OC)c2)cc2c1[Si](C(C)C)(C(C)C)O[C@H]2c1ccccc1 What is its recorded composite z-score?
Found: 0.811

---

experiment: COS7 lysate on small-molecule microarray, probe aHis, 635 nm (AID 1123); conditions: COS7 cell lysate, fluorescence, higher = more signal;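 note: z-score combines 667nm fluorescence intensity with signal-to-noise per printed compound spot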
Measured composite z-score of individual entries
I only need the number, thanks.

Solved cases (5 shown):
COMPOUND: C=C(CCCC)/C(=C/C[C@H](OC(=O)c1ccncc1)c1cccc(OCCO)c1)c1cnc2ccccc2c1
composite z-score: 1.17
--
COMPOUND: [N-]=[N+]=Nc1ccccc1[C@H]1OC(c2ccc(OCCCO)cc2)=N[C@@]1(Cc1ccccc1)C(=O)NCC(O)CO (stereo partly specified)
composite z-score: 3.2
--
COMPOUND: C=CCN1C(=O)[C@]2(O[C@H](CCn3cc([C@H](O)c4ccccc4)nn3)[C@@H]([Si](C)(C)c3ccc(OC)cc3)[C@@H]2C)c2cc(NC(=O)c3ccc(OC)cc3)ccc21
composite z-score: 1.02
--
COMPOUND: COCCOC(=O)N1C(=O)[C@@]2(c3cc(C#CCC(C(=O)OC)C(=O)OC)ccc31)[C@H](C(=O)Nc1nc3ccccc3s1)[C@H]1C(=O)O[C@H](c3ccccc3)[C@H](c3ccccc3)N1[C@@H]2c1ccc(OCCO)cc1
composite z-score: 1.24
--
COMPOUND: COc1ccc([Si](C)(C)[C@@H]2[C@@H](CC(=O)N3CCC[C@H]3CO)O[C@]3(C(=O)N(Cc4cccc(N5CCCCC5=O)c4)c4ccccc43)[C@H]2C)cc1
composite z-score: 1.97

Attention now shifts to the item below.
Lookup: // lookup composite z-score for NC(=O)N1C(=O)C2C(C1=O)C1C=C(CCCO)C2C(c2ccc(CN3CCCC3)cc2)N1Cc1sc2ccccc2c1Cl (stereo unspecified)
Found: 0.712

---

assay: blood-stage malaria parasite viability loss – strain 3D7, DAPI fluorescence, 100 nL, primary screen (AID 1184);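 note: parasites grown inside human red blood cells in medium with human serum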; settings: P. falciparum 3D7 growth, 3 d, higher = more signal
z-score of -1 or higher: criterion met. Under -1: criterion not met.

// known answers, use as guide
COMPOUND: CCCC=C(CCC)[C@@H](NC(=O)c1ccc(C(F)(F)F)cc1)c1ccc(C(F)(F)F)cc1
CATEGORY_LABEL: criterion met
//
COMPOUND: [N-]=[N+]=Nc1ccccc1[C@H]1OC(c2ccc(OCCCO)cc2)=N[C@@]1(Cc1ccccc1)C(=O)NCC(O)CO (stereo partly drawn)
CATEGORY_LABEL: criterion not met
//
COMPOUND: COc1ccc([Si](C)(C)[C@H]2[C@H](CCO)O[C@@]3(C(=O)N(Cc4ccc(NC(=O)[C@H](C)O)cc4)c4ccccc43)[C@@H]2C)cc1
CATEGORY_LABEL: criterion not met
//
COMPOUND: C#CCN1[C@@H](Cc2ccccc2)C(=O)O[C@H](Cc2ccccc2)[C@@H]1/C=C/C1CC1
CATEGORY_LABEL: criterion not met
//
COMPOUND: CC1CC/C=C\[C@H]2OC34C=CCN(CCN5CCOCC5)C(=O)[C@H]3N(CCCO)C(=O)[C@@H]4C2C(=O)O1 (stereo partly drawn)
CATEGORY_LABEL: criterion met

Lookup: Does COc1ccc(C(=O)Nc2ccc3c(c2)[C@@]2(O[C@H](CCO)[C@@H]([Si](C)(C)c4ccc(OC)cc4)[C@@H]2C)C(=O)N3Cc2ccccc2)cc1 have a reported z-score of at least -1?
Found: criterion not met

Lookup: Now consider C=CCOC(=O)[C@H]1[C@@H]2C(=O)O[C@@H](c3ccccc3)[C@@H](c3ccccc3)N2[C@@H](c2ccc(OCCOC(=O)[C@@H]3C[C@@H]4C(=O)N[C@@H](CCCCNC(C)=O)C(=O)N4[C@@H]3c3cccc(OCCO)c3)cc2)[C@]12C(=O)Nc1ccccc12 .
Found: criterion not met

Lookup: Again, but for COc1ccc([Si](C)(C)[C@@H]2[C@@H](CC(=O)N(CCO)Cc3ccccc3)O[C@]3(C(=O)N(Cc4ccc(N5C(=O)c6cccc7cccc5c67)cc4)c4ccccc43)[C@H]2C)cc1
Found: criterion not met

Lookup: Again, but for CCOC(=O)C1=CC[C@@H](c2ccc(OC)cc2)N(S(=O)(=O)c2ccc(C)cc2)[C@H]1c1ccc(C)cc1
Found: criterion met

Lookup: Same again, this time with COc1cc(CO)cc(I)c1O[C@H]1C=C(C(=O)NCCO)C[C@@H]2O[C@H]12
Found: criterion not met

Lookup: Also need CCOC(=O)C[C@H]1[C@H](OC(=O)c2ccccc2-c2ccccc2)[C@@H](NC(=O)c2ccc3ccccc3c2)c2cc(OCCCO)ccc2N1C(=O)Cc1ccc(OC)cc1 , thanks.
Found: criterion met

Lookup: And for COc1ccc(C(O)C2C=CC3C(=O)N(c4ccccc4)C(=O)C3N2Nc2ccc([N+](=O)[O-])cc2)c2ccccc12 (stereo not drawn) ?
Found: criterion not met

Lookup: Please answer likewise for CC(C)(C)N1CC=CC23O[C@@H]4C=CCOC(=O)[C@@H]4[C@H]2C(=O)N(CCO)[C@@H]3C1=O (stereo partly drawn)
Found: criterion met

---

molecular target: Neurogenic locus notch homolog protein 3 (Homo sapiens); assay: small molecules binding NOTCH3 protein – biochemical, 635/667 nm fluorescence, primary screen (AID 1096); conditions: small-molecule microarray, 635 nm fluorescence, higher = more signal
Label Fulfilled when composite z-score is at or above -0.1; anything below gets Not fulfilled.

Lookup: Threshold query (composite z-score >= -0.1) on CCOC(=O)C[C@H]1[C@H](OC(=O)c2cc3ccccc3oc2=O)[C@@H](NC(=O)CC(C)C)c2cc(OCCCO)ccc2N1C(=O)Cc1ccc(OC)cc1
Found: Fulfilled

Lookup: How about this molecule: COCCOC(=O)N1C(=O)[C@@]2(c3cc(C#CCNC(N)=O)ccc31)[C@H](C(=O)Nc1nc3ccccc3s1)[C@H]1C(=O)O[C@H](c3ccccc3)[C@H](c3ccccc3)N1[C@@H]2c1ccccc1OCCO
Found: Fulfilled

Lookup: Param item: C=CCNC(=O)[C@H]1[C@@H]2C(=O)O[C@@H](c3ccccc3)[C@@H](c3ccccc3)N2[C@@H](c2ccccc2OCCO)[C@]12C(=O)N(C(=O)OCCOC)c1ccc(C#Cc3ccc(OC)cc3)cc12
Found: Fulfilled

Lookup: Another: COc1ccc([Si](C)(C)[C@H]2[C@H](CC(=O)N3Cc4ccccc4C[C@H]3CO)O[C@@]3(C(=O)N(C)c4c(Br)cc(C)cc43)[C@@H]2C)cc1
Found: Fulfilled

Lookup: Subsequent entry: O=C1C2C=CC(C(O)c3ccc([N+](=O)[O-])cc3)N(Nc3ccccc3F)C2C(=O)N1c1ccccc1 (stereo not drawn)
Found: Fulfilled

Lookup: Same again, this time with C=CCC(OC(C)=O)[C@@H]1[C@@H](N(Cc2cc3ccccc3o2)C(=O)c2cccc3ccccc23)c2cc(OCCCO)ccc2N1C(=O)c1ccc2ccccc2n1 (stereo partly drawn)
Found: Not fulfilled

Lookup: Consider next the molecule O=C1NC(=O)C2C1C=CC(C(O)c1ccc(B(O)O)cc1)N2Nc1ccc(Cl)cc1Cl (stereo not drawn) in the same way.
Found: Fulfilled

Lookup: Please answer likewise for CC(C)N1C(=O)C[C@@](C(=O)NCCN2CCOCC2)(c2ccc([N+](=O)[O-])cc2)[C@H]1c1ccc(CO)cc1
Found: Not fulfilled

Lookup: // next record C=CCNC(=O)[C@H]1[C@@H]2C(=O)O[C@@H](c3ccccc3)[C@@H](c3ccccc3)N2[C@@H](c2ccc(OCCO)cc2)[C@]12C(=O)Nc1ccc(C#CC3(O)CCCCCC3)cc12
Found: Fulfilled

---

tested on: XIP peptide (Xip251-270) binding; assay: XIP fragment 251-270 binding compounds – biochemical, small-molecule microarray, fluorescence 635/667 nm, 0.1 µg/mL protein, primary screen (AID 1182); settings: fluorescent protein binding, 635 nm, higher = more signal, called active from +8 up or from −8 down
Collected composite z-score values appear next to each entry.
Lab note: record just the number, no unit beside it.

Reference set, count: 4
MOLECULE: O=C1NC(=O)C2C1C=CC(C(O)c1ccc([N+](=O)[O-])cc1)N2Nc1ccccn1 (stereo not given)
EXPERIMENTAL_SYSTEM: XIP peptide (Xip251-270) binding
composite z-score: -0.254
--
MOLECULE: COCCOC(=O)N1C(=O)[C@@]2(c3cc(C#CCC(C(=O)OC)C(=O)OC)ccc31)[C@H](c1ccc(O)cc1)N1[C@H](c3ccccc3)[C@H](c3ccccc3)OC(=O)[C@H]1[C@@H]2C(=O)Nc1nc2ccccc2s1
EXPERIMENTAL_SYSTEM: XIP peptide (Xip251-270) binding
composite z-score: 1.49
--
MOLECULE: COC(=O)[C@@]1(Cc2ccc(F)cc2)[C@H]2c3cc(C(=O)N4CCCC4)n(Cc4cc(F)cc5c4OCOC5)c3C[C@H]2CN1C(=O)c1ccccc1
EXPERIMENTAL_SYSTEM: XIP peptide (Xip251-270) binding
composite z-score: 0.602
--
MOLECULE: O=C1C2C=CC(C(O)c3c(F)cccc3Cl)N(Nc3ccc([N+](=O)[O-])cc3)C2C(=O)N1c1ccccc1 (stereo not given)
EXPERIMENTAL_SYSTEM: XIP peptide (Xip251-270) binding
composite z-score: 1.03

Lookup: Report composite z-score for CC(C)C[C@@H]1NC(=O)[C@@H]2C[C@H](C(=O)NCCCCCCNC(=O)CS)[C@H](c3cccc(OCCO)c3)N2C1=O please.
Found: 1.63

Lookup: Now consider CCCCCC1=C2CNC(Cc3ccccc3)(C(=O)OC)C=C2C(C)C1=O (stereo not given) .
Found: -0.186

Lookup: Queued: CCCc1cc2c(n1CCc1ccc(Cl)cc1)C(C)C1CN(C(=O)c3ccccc3)C(C)(C(=O)OC)C21 (stereo not given)
Found: -0.573

Lookup: Could you do the same for C=C(CCCC)C(=O)CC[C@@H](OC(=O)c1ccccc1-c1ccccc1C(=O)O)c1ccccc1OCCO , please?
Found: 0.721
